Test: Half life in Sprague-Dawley rat at 3 mg/kg,po measured upto 24 hrs by LC-MS/MS analysis
Type: ADME, organism-based
Conditions: in vivo
quantity: half-life (min)
Expressed in min, but write only the number.

half-life for [2H]C([2H])(Oc1nc(N2C[C@H]3CC[C@@H](C2)N3)c2cnc(-c3cc(N)cc4ccc(F)c(C#C)c34)c(F)c2n1)C12CCCN1CC(=C(F)F)C2 (stereo partly specified) is 22.9

====

Measured microsomal CLint at 150 µM values are reported for all entries that follow.
Experiment: Metabolic stability in monkey liver microsomes assessed as intrinsic clearance at 150 uM measured after 60 mins in presence of NADPH by LC-MS/MS analysis
Type: ADME, Macaca mulatta, Microsome
Conditions: rhesus monkey, read-out: CLH
Note: unit µL/min/mg is implicit; provide only the numeric part.

The cases that follow already have their microsomal CLint at 150 µM on record.
C#Cc1c(F)ccc2cc(O)cc(-c3ncc4c(N5C[C@H]6CC[C@@H](C5)N6)nc(OC[C@@]56CCCN5C[C@H](F)C6)nc4c3F)c12 :: 40.6
[2H]C([2H])(Oc1nc(N2C[C@H]3CC[C@@H](C2)N3)c2cnc(-c3cc(N)cc4ccc(F)c(C#C)c34)c(F)c2n1)C12CCCN1CC(=C(F)F)C2 (stereo partly drawn) :: 45.4

Now turn to the next compound.
According to the records, this compound [2H]C([2H])(Oc1nc(N2C[C@H]3CC[C@@H](C2)N3)c2cnc(-c3cc(O)cc4ccc(F)c(C#C)c34)c(F)c2n1)C12CCCN1CC(=C(F)F)C2 (stereo partly drawn) displays microsomal CLint at 150 µM of 57
